# study-target: TbrPDEB2 (Trypanosoma brucei brucei, UniProt Q38F42)
# assay-comment: TbrPDE assay, recombinant TbrPDEB2 catalytic domain
# Format: biochemical
# test-settings: read-out: TbrPDEB2 IC50; Table 1; 10% DMSO, 25 μM cAMP; ">> x μM" if <25% inh at x μM, "> x μM" if 25-50% inh at x μM
quantity: IC50

> print(dat)
                                   molecule  quantity   result
1  CS(=O)(=O)Oc1ccc2c(NC(N)=O)c(C(=O)c3ccc(Cl)cc3Cl)oc2c1 [BAY 19-8004]      IC50  > 10 µM

---

Measured IC50, listed per entry for reference.
# study-target: TbrPDEB1 (Trypanosoma brucei)
# assay-comment: TbrPDE assay, recombinant TbrPDEB1 catalytic domain
# Type: biochemical
# test-settings: read-out: TbrPDEB1 IC50; Table 1; 10% DMSO, 25 μM cAMP; ">> x μM" if <25% inh at x μM, "> x μM" if 25-50% inh at x μM
quantity: IC50

> print(dat)
                                   compound  quantity    result
1  CS(=O)(=O)Oc1ccc2c(NC(N)=O)c(C(=O)c3ccc(Cl)cc3Cl)oc2c1 [BAY 19-8004]      IC50   > 10 µM
2  CCCCOc1cc(CC2CNC(=O)N2)ccc1OC (centres unmarked) [RO 20-1724]      IC50  > 100 µM
